Recorded protein stability index by entry
B1: HESX1 (parent)
chain: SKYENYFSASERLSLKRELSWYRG

# Variants of: B1
# test description: protein stability index of a GFP-peptide fusion (GPS, HEK-293T) (PSI 1-6); higher = more stable;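 also: lentivirally expressed fusions sorted by FACS into six bins by GFP to DsRed ratio, PSI derived from sequencing read proportions per bin multiplied by bin number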
# study conditions: c terminus: a fixed tail appended
Keep the answer to the number alone.

{"columns": ["mutant id", "protein stability index"],
 "data": [
  ["Y6G", 2.56],
  ["G24A", 1.81],
  ["W21V", 2.2],
  ["W21Y", 2.4],
  ["R17L", 1.38]
]}

Sure, the documented protein stability index for S20L is 2.8

// protein stability index value for R23N : 1.94

Form: variant = S1K ; protein stability index = 1.4

Lab book: protein stability index of E4H noted as 1.17

protein stability index reading for S8R : 1.44

Given item Y6Q , the value recorded as its protein stability index is 1.96

Sourced from the supplement of paper PMC10567573
